Biological target: T1, human CTLA4 (soluble analyte of the Biacore assays of Reference Example 3-3) (human, UniProt P16410 36-161)
T1 construct: also called hCTLA4
T1 sequence: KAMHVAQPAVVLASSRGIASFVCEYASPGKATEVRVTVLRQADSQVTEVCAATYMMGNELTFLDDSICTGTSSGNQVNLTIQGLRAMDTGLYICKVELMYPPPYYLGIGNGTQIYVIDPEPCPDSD
Test: SPR, 1000 nM CTLA4, per unit antibody, ATP 100 uM
property: Binding to Human CTLA4

>  <binder>
04H1077-G1m/04L1086-lam1 (antibody, human IgG1, lambda, V domains shown) VH: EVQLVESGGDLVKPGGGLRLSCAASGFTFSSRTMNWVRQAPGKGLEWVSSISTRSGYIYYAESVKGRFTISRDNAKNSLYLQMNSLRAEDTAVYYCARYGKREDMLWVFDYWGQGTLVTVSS VL: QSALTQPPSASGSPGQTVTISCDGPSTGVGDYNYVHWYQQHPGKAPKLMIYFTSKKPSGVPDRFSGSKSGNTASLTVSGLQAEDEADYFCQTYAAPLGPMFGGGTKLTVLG

>  <measured>
0.181

$$$$
>  <binder>
04H1077-G1m/04L1034-lam1 (antibody, human IgG1, lambda, V domains shown) VH: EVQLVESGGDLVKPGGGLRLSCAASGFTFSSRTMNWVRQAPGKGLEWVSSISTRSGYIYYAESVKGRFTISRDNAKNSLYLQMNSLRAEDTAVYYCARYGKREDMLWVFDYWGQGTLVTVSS VL: QSALTQPPSASGSPGQTVTISCDGPSTDVGDYNWVSWYQQHPGKAPKLMIYFTSKKPSGVPDRFSGSKSGNTASLTVSGLQAEDEADYFCSTYAAPLGPMFGGGTKLTVLG

>  <measured>
0.114

$$$$
>  <binder>
04H1207-G1m/04L1086-lam1 (antibody, human IgG1, lambda, V domains shown) VH: EVQLVESGGGLVKPGGSLRLSCAASGFTFSSKTMNWVRQAPGKGLEWVSSISTRSGYIYYAESVKGRFTISRDNAKNSLYLQMNSLRAEDTAVYYCARYGKREDMLWVFDYWGQGTLVTVSS VL: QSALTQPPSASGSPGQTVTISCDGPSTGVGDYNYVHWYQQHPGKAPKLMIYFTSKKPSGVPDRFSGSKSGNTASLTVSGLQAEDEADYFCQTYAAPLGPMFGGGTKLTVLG

>  <measured>
0.196

$$$$
>  <binder>
04H1077-G1m/04L1041-lam1 (antibody, human IgG1, lambda, V domains shown) VH: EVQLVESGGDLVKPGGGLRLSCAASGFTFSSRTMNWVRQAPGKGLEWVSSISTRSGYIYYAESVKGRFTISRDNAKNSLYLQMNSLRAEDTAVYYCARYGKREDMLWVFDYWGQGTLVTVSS VL: QSALTQPPSASGSPGQTVTISCDGPSTDVGDYNYVHWYQQHPGKAPKLMIYFTSKKPSGVPDRFSGSKSGNTASLTVSGLQAEDEADYFCSTYAAPLGPMFGGGTKLTVLG

>  <measured>
0.172

$$$$
>  <binder>
04H1208-G1m/04L1086-lam1 (antibody, human IgG1, lambda, V domains shown) VH: EVQLVESGGGLVKPGGSLRLSCAASGFTFSSKTMNWVRQAPGKGLEWVSSISTRSGYIYYARSVKGRFTISRDNAKNSLYLQMNSLRAEDTAVYYCARYGKREDMLWVFDYWGQGTLVTVSS VL: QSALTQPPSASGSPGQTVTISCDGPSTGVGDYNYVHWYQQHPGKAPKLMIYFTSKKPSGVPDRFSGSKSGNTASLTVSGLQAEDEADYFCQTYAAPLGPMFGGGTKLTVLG

>  <measured>
0.17

$$$$
>  <binder>
04H1077-G1m/04L1066-lam1 (antibody, human IgG1, lambda, V domains shown) VH: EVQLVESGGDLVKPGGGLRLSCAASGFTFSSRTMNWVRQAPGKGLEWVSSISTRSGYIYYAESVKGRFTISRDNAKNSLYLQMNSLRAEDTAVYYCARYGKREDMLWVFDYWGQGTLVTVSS VL: QSALTQPPSASGSPGQTVTISCDGPSTDVGDYNWVHWYQQHPGKAPKLMIYFTSKKPSGVPDRFSGSKSGNTASLTVSGLQAEDEADYFCSTYAAPLGPMFGGGTKLTVLG

>  <measured>
0.185

$$$$
>  <binder>
04H1077-G1m/04L1067-lam1 (antibody, human IgG1, lambda, V domains shown) VH: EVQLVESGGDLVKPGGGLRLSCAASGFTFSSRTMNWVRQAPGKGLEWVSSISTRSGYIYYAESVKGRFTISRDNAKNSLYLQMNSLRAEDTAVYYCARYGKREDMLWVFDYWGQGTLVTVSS VL: QSALTQPPSASGSPGQTVTISCDGPSTGVGDYNYVHWYQQHPGKAPKLMIYFTSKKPSGVPDRFSGSKSGNTASLTVSGLQAEDEADYFCSTYAAPLGPMFGGGTKLTVLG

>  <measured>
0.192

$$$$
>  <binder>
04H1077-G1m/04L1305-k0MT (antibody, human IgG1, kappa, V domains shown) VH: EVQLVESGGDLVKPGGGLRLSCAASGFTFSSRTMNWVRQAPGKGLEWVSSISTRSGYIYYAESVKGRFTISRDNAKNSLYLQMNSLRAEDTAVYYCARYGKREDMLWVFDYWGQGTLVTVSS VL: DIVMTQSPLSLPVTPGEPASISCDGPSTGVGDYNYVHWYQQKPGQAPRLLIYFTSKKPSGVPDRFSGSGSGTDFTLKISRVEAEDVGVYYCQTYAAPLGPMFGQGTKLEIKR

>  <measured>
0.185

$$$$
